Where do the numbers come from? From ChEMBL document CHEMBL5303573.

# test_protocol: The drug is tested on Bacteroides xylanisolvens strain: DSM18836 for biotransformation. The drug concentrations were measured before and after a 12-h incubation by liquid-chromatography-coupled mass spectrometry (LC–MS)
# condition_description: 2 µM
measure_name: Bacterial Biotransformation

Below, each entry is followed by its recorded Bacterial Biotransformation result.
compound	Bacterial Biotransformation
CN(C)CCc1c[nH]c2ccc(CS(=O)(=O)N3CCCC3)cc12	Compound NOT metabolized
CCOC(=O)[C@H](CCc1ccccc1)N[C@@H](C)C(=O)N1CCC[C@H]1C(=O)O.O=C(O)/C=C\C(=O)O [ENALAPRIL MALEATE]	Compound metabolized
CO[C@]12C[C@@H](COC(=O)c3cncc(Br)c3)CN(C)[C@@H]1Cc1cn(C)c3cccc2c13	Compound NOT metabolized
COc1ccc2c3c1O[C@H]1C[C@@H](O)C=C[C@@]31CCN(C)C2	Compound metabolized
Cc1ccc(/C(=C\CN2CCCC2)c2ccccn2)cc1	Compound NOT metabolized

Value sought for every listed compound: Bacterial Biotransformation.
1. CN1CCC(=C2c3ccccc3CC(=O)c3sccc32)CC1.O=C(O)/C=C/C(=O)O [KETOTIFEN FUMARATE]
2. CC[C@@]1(O)C(=O)OCc2c1cc1n(c2=O)Cc2cc3c(CN(C)C)c(O)ccc3nc2-1

stdout:
1. Compound NOT metabolized
2. Compound NOT metabolized

Value sought for every listed compound: Bacterial Biotransformation.
1. CCCCc1nc(Cl)c(CO)n1Cc1ccc(-c2ccccc2-c2nn[nH]n2)cc1
2. N=C(N)NC(=O)Cc1c(Cl)cccc1Cl

stdout:
["Compound metabolized", "Compound NOT metabolized"]

###

# test_protocol: The drug is tested on Clostridium symbiosum strain: ATCC14940 for biotransformation. The drug concentrations were measured before and after a 12-h incubation by liquid-chromatography-coupled mass spectrometry (LC–MS)
# condition_description: 2 µM
measure_name: Bacterial Biotransformation

Below, each entry is followed by its recorded Bacterial Biotransformation result.
molecule	measured_result
CCCCCOC(=O)Nc1nc(=O)n([C@@H]2O[C@H](C)[C@@H](O)[C@H]2O)cc1F [CAPECITABINE]	Compound NOT metabolized
Br.CN1CCC[C@@H]1Cc1c[nH]c2ccc(CCS(=O)(=O)c3ccccc3)cc12 [ELETRIPTAN HYDROBROMIDE]	Compound NOT metabolized
COc1ccccc1OCCNCC(O)COc1cccc2[nH]c3ccccc3c12 (centres undefined) [CARVEDILOL]	Compound NOT metabolized
OC(c1cc(C(F)(F)F)nc2c(C(F)(F)F)cccc12)C1CCCCN1 (centres undefined) [MEFLOQUINE]	Compound NOT metabolized

Value sought for every listed molecule: Bacterial Biotransformation.
1. COc1ccc(C(CN(C)C)C2(O)CCCCC2)cc1 (centres undefined) [VENLAFAXINE]
2. CN(C)CCC=C1c2ccccc2COc2ccccc21 [DOXEPIN]
3. CN(C)C(=O)Oc1cccc([N+](C)(C)C)c1.[Br-] [NEOSTIGMINE BROMIDE]
4. CC(C)(C)NC[C@H](O)COc1nsnc1N1CCOCC1.O=C(O)/C=C\C(=O)O [TIMOLOL MALEATE]

stdout:
["Compound NOT metabolized", "Compound NOT metabolized", "Compound NOT metabolized", "Compound NOT metabolized"]

###

# test_protocol: The drug is tested on Anaerococcus hydrogenalis strain: DSM7454 for biotransformation. The drug concentrations were measured before and after a 12-h incubation by liquid-chromatography-coupled mass spectrometry (LC–MS)
# condition_description: 2 µM
measure_name: Bacterial Biotransformation

molecule	measure_name	measured_result
CC(C)NCC(O)COc1ccc(COCCOC(C)C)cc1.CC(C)NCC(O)COc1ccc(COCCOC(C)C)cc1.O=C(O)/C=C/C(=O)O (stereo unspecified) [BISOPROLOL FUMARATE]	Bacterial Biotransformation	Compound NOT metabolized
OCCN(CCO)c1nc(N2CCCCC2)c2nc(N(CCO)CCO)nc(N3CCCCC3)c2n1	Bacterial Biotransformation	Compound NOT metabolized
C=CC[C@@H]1/C=C(\C)C[C@H](C)C[C@H](OC)[C@H]2O[C@@](O)(C(=O)C(=O)N3CCCC[C@H]3C(=O)O[C@H](/C(C)=C/[C@@H]3CC[C@@H](O)[C@H](OC)C3)[C@H](C)[C@@H](O)CC1=O)[C@H](C)C[C@@H]2OC.O	Bacterial Biotransformation	Compound metabolized
NC(=O)N1c2ccccc2CC(=O)c2ccccc21 [OXCARBAZEPINE]	Bacterial Biotransformation	Compound NOT metabolized

Value sought for every listed molecule: Bacterial Biotransformation.
1. CN1CCN(CC/C=C2/c3ccccc3Sc3ccc(S(=O)(=O)N(C)C)cc32)CC1
2. Cc1ccnc2c1NC(=O)c1cccnc1N2C1CC1
3. CC(O)(CS(=O)(=O)c1ccc(F)cc1)C(=O)Nc1ccc(C#N)c(C(F)(F)F)c1 (stereo unspecified) [BICALUTAMIDE]
4. Cc1ccc(-c2nc3ccc(C)cn3c2CC(=O)N(C)C)cc1
5. CN1C(C(=O)Nc2ccccn2)=C(O)c2sccc2S1(=O)=O
6. OCCN1CCN(CCCN2c3ccccc3Sc3ccc(C(F)(F)F)cc32)CC1
7. CCN(CC)CCNC(C(=O)OCCC(C)C)c1ccccc1.Cl.Cl (stereo unspecified)

stdout:
Compound metabolized
Compound NOT metabolized
Compound NOT metabolized
Compound NOT metabolized
Compound NOT metabolized
Compound NOT metabolized
Compound NOT metabolized

Value sought for every listed molecule: Bacterial Biotransformation.
1. C#C[C@]1(OC(C)=O)CC[C@H]2[C@@H]3CCC4=C[C@@H](OC(C)=O)CC[C@@H]4[C@H]3CC[C@@]21C [ETHYNODIOL DIACETATE]
2. CCN1CCCC1CNC(=O)c1cc(S(=O)(=O)CC)c(N)cc1OC (stereo unspecified) [AMISULPRIDE]
3. CCC1(c2ccc(N)cc2)CCC(=O)NC1=O (stereo unspecified) [AMINOGLUTETHIMIDE]
4. N[C@@H](Cc1ccc(N(CCCl)CCCl)cc1)C(=O)O
5. O=C1C(CC[S+]([O-])c2ccccc2)C(=O)N(c2ccccc2)N1c1ccccc1 (stereo unspecified)

stdout:
["Compound NOT metabolized", "Compound NOT metabolized", "Compound NOT metabolized", "Compound metabolized", "Compound NOT metabolized"]

###

# test_protocol: The drug is tested on Anaerococcus hydrogenalis strain: DSM7454 for biotransformation. The drug concentrations were measured before and after a 12-h incubation by liquid-chromatography-coupled mass spectrometry (LC–MS)
# condition_description: 2 µM
measure_name: Bacterial Biotransformation

Below, each entry is followed by its recorded Bacterial Biotransformation result.
compound	measured_result
CC(C)C[C@H]1C(=O)N2CCC[C@H]2[C@]2(O)O[C@](NC(=O)[C@@H]3C=C4c5cccc6[nH]c(Br)c(c56)C[C@H]4N(C)C3)(C(C)C)C(=O)N12.CS(=O)(=O)O [BROMOCRIPTINE MESYLATE]	Compound metabolized
CCCc1nn(C)c2c(=O)[nH]c(-c3cc(S(=O)(=O)N4CCN(C)CC4)ccc3OCC)nc12.O=C(O)CC(O)(CC(=O)O)C(=O)O [SILDENAFIL CITRATE]	Compound metabolized
CCC(=O)NCC[C@@H]1CCc2ccc3c(c21)CCO3	Compound NOT metabolized
COc1ccccc1OCCNCC(O)COc1cccc2[nH]c3ccccc3c12 (configuration not stated)	Compound metabolized
CN1CCN(C(=O)O[C@H]2c3nccnc3C(=O)N2c2ccc(Cl)cn2)CC1	Compound NOT metabolized

Value sought for every listed compound: Bacterial Biotransformation.
1. CCOc1ccccc1OCCN[C@H](C)Cc1ccc(OC)c(S(N)(=O)=O)c1.Cl [TAMSULOSIN HYDROCHLORIDE]
2. CC(=O)OCC(=O)[C@@]1(OC(C)=O)[C@@H](C)C[C@H]2[C@@H]3C[C@H](F)C4=CC(=O)C=C[C@]4(C)[C@@]3(F)[C@@H](O)C[C@@]21C [DIFLORASONE DIACETATE]

stdout:
1: Compound NOT metabolized; 2: Compound NOT metabolized

###

# test_protocol: The drug is tested on Bifidobacterium breve strain: DSM20213 for biotransformation. The drug concentrations were measured before and after a 12-h incubation by liquid-chromatography-coupled mass spectrometry (LC–MS)
# condition_description: 2 µM
measure_name: Bacterial Biotransformation

Below, each entry is followed by its recorded Bacterial Biotransformation result.
molecule	measured_result
COc1ccccc1N1CCN(CC(O)COc2cccc3ccccc23)CC1 (stereo not given)	Compound NOT metabolized
O=C(CCCN1CCC(O)(c2ccc(Cl)cc2)CC1)c1ccc(F)cc1	Compound NOT metabolized
CN(C)C(=O)Oc1cccc([N+](C)(C)C)c1.[Br-] [NEOSTIGMINE BROMIDE]	Compound NOT metabolized
COc1cc2nc(N3CCN(C(=O)C4CCCO4)CC3)nc(N)c2cc1OC (stereo not given)	Compound NOT metabolized
CC(C)(C)NCC(O)c1cc(Cl)c(N)c(Cl)c1 (stereo not given)	Compound NOT metabolized

Value sought for every listed molecule: Bacterial Biotransformation.
1. CN(C)C(=O)Oc1cc(OC(=O)N(C)C)cc(C(O)CNC(C)(C)C)c1 (stereo not given)
2. CCCc1nn(C)c2c(=O)[nH]c(-c3cc(S(=O)(=O)N4CCN(C)CC4)ccc3OCC)nc12.O=C(O)CC(O)(CC(=O)O)C(=O)O [SILDENAFIL CITRATE]
3. CN1C[C@H](C(=O)N[C@]2(C)O[C@@]3(O)[C@@H]4CCCN4C(=O)[C@H](Cc4ccccc4)N3C2=O)C=C2c3cccc4[nH]cc(c34)C[C@H]21.CN1C[C@H](C(=O)N[C@]2(C)O[C@@]3(O)[C@@H]4CCCN4C(=O)[C@H](Cc4ccccc4)N3C2=O)C=C2c3cccc4[nH]cc(c34)C[C@H]21.O=C(O)C(O)C(O)C(=O)O [ERGOTAMINE TARTRATE]
4. CCS(=O)(=O)CCn1c([N+](=O)[O-])cnc1C
5. CCOC(=O)[C@H](CCc1ccccc1)N[C@@H](C)C(=O)N1CCC[C@H]1C(=O)O.O=C(O)/C=C\C(=O)O [ENALAPRIL MALEATE]
6. O=C(O)COCCN1CCN(C(c2ccccc2)c2ccc(Cl)cc2)CC1 (stereo not given)

stdout:
1. Compound NOT metabolized
2. Compound NOT metabolized
3. Compound metabolized
4. Compound metabolized
5. Compound NOT metabolized
6. Compound NOT metabolized

Value sought for every listed molecule: Bacterial Biotransformation.
1. COc1cc(NC(C)CCCN)c2ncccc2c1.O=P(O)(O)O.O=P(O)(O)O (stereo not given) [PRIMAQUINE PHOSPHATE]
2. COc1ccc([C@@H]2Sc3ccccc3N(CCN(C)C)C(=O)[C@@H]2OC(C)=O)cc1
3. CN(C)CCOC(C)(c1ccccc1)c1ccccn1.O=C(O)CCC(=O)O (stereo not given) [DOXYLAMINE SUCCINATE]

stdout:
1. Compound metabolized
2. Compound NOT metabolized
3. Compound NOT metabolized

Value sought for every listed molecule: Bacterial Biotransformation.
1. CN(C)CCC=C1c2ccccc2C=Cc2ccccc21
2. CC(C)(C)NC[C@H](O)COc1nsnc1N1CCOCC1.O=C(O)/C=C\C(=O)O [TIMOLOL MALEATE]
3. CC(=O)OCC(=O)[C@@]1(OC(C)=O)[C@@H](C)C[C@H]2[C@@H]3C[C@H](F)C4=CC(=O)C=C[C@]4(C)[C@@]3(F)[C@@H](O)C[C@@]21C [DIFLORASONE DIACETATE]
4. CC(C)C[C@H]1C(=O)N2CCC[C@H]2[C@]2(O)O[C@](NC(=O)[C@@H]3C=C4c5cccc6[nH]c(Br)c(c56)C[C@H]4N(C)C3)(C(C)C)C(=O)N12.CS(=O)(=O)O [BROMOCRIPTINE MESYLATE]
5. Cc1ccnc2c1NC(=O)c1cccnc1N2C1CC1
6. CN1CCOC(c2ccccc2)c2ccccc2C1 (stereo not given)

stdout:
Compound NOT metabolized
Compound NOT metabolized
Compound NOT metabolized
Compound metabolized
Compound NOT metabolized
Compound NOT metabolized

Value sought for every listed molecule: Bacterial Biotransformation.
1. CC[C@H](C)C(=O)O[C@H]1C[C@@H](C)C=C2C=C[C@H](C)[C@H](CC[C@@H]3C[C@@H](O)CC(=O)O3)[C@H]21
2. CNNCc1ccc(C(=O)NC(C)C)cc1
3. CC[C@@H](CO)NC(=O)[C@@H]1C=C2c3cccc4c3c(cn4C)C[C@H]2N(C)C1.O=C(O)/C=C\C(=O)O [METHYSERGIDE MALEATE]
4. Fc1ccc([C@@H]2CCNC[C@H]2COc2ccc3c(c2)OCO3)cc1
5. COc1ccc2c3c1O[C@H]1C[C@@H](O)C=C[C@@]31CCN(C)C2

stdout:
Compound metabolized
Compound NOT metabolized
Compound metabolized
Compound NOT metabolized
Compound NOT metabolized
